# experimental_target: CDK9 (Homo sapiens)
# Construct: host or cells: HEK293
# assay_name: CDK9 HIBIT PQ (protein quantification), degradation
# Type: cell-based
# condition: Max = Maximum
Assign Dmax to each entry below.
Value expressed in %; do not type the unit.

What value of measured Dmax is listed for CC(C)Oc1c(-c2cn[nH]c2)ncn2nc(Nc3ccc(S(=O)(=O)c4cccc(C[C@H]5C[C@@H](c6ccc7c(c6)CN([C@@H]6CCC(=O)NC6=O)C7=O)C5)c4)cc3F)nc12 (stereo in doubt) ?
26

Same for CC(C)Oc1c(-c2cn[nH]c2)ncn2nc(Nc3ccc(S(=O)(=O)c4cccc(CN5CCN(c6cc7c(cc6F)C(=O)N(C6CCC(=O)NC6=O)C7)CC5)c4)cc3F)nc12 (racemic)
50

Can you check CC(C)Oc1c(-c2cn[nH]c2)ncn2nc(Nc3ccc(S(=O)(=O)c4cccc(CC5CC(c6ccc7c(c6)n(C)c(=O)n7[C@H]6CCC(=O)NC6=O)C5)c4)cc3F)nc12 (mixture of isomers) next?
9

Again, but for Cc1cc(S(=O)(=O)N(C)CCCN2CCC(c3ccc4c(c3)n(C)c(=O)n4C3CCC(=O)NC3=O)CC2)cc(F)c1Nc1nc2c(OC(C)C)c(-c3cn[nH]c3)ncn2n1 (racemic)
82

Subsequent entry: CC(C)Oc1c(-c2cn[nH]c2)ncn2nc(Nc3ccc(S(=O)(=O)N(C)CCCN4CCN(c5ccc6c(c5)n(C)c(=O)n6C5CCC(=O)NC5=O)C[C@@H]4C)cc3F)nc12 (stereo partly shown)
75

Follow-up entry: CC(C)Oc1c(-c2cn[nH]c2)ncn2nc(Nc3ccc(S(=O)(=O)N4CC5(CCCN(CCOc6cccc7c6n(C)c(=O)n7C6CCC(=O)NC6=O)C5)C4)cc3F)nc12 (stereo not shown)
6

Item: CC(C)Oc1c(-c2cn[nH]c2)ncn2nc(Nc3ccc(S(=O)(=O)N(C)CCCN4CCC(c5ccc6c(c5)n(C)c(=O)n6C5CCC(=O)NC5=O)CC4)c(F)c3F)nc12 (racemic)
90

And for CC(C)Oc1c(-c2cn[nH]c2)ncn2nc(Nc3ccc(S(=O)(=O)N4CCC[C@H](CN5CC[C@@H](c6ccc7c(N8CCC(=O)NC8=O)nn(C)c7c6)CC5(C)C)C4)cc3F)nc12 (single isomer, unassigned) ?
80

Try CC(C)Oc1c(-c2cn[nH]c2)ncn2nc(Nc3ccc(S(=O)(=O)c4cccc(C(C)N5CCN(c6ccc7c(N8CCC(=O)NC8=O)nn(C)c7c6)C6CC65)c4)cc3F)nc12 (stereo not shown) next.
23

Next up: CC(C)Oc1c(-c2cn[nH]c2)ncn2nc(Nc3ccc(S(=O)(=O)c4cccc(C(C)N5CCC(c6ccc7c(N8CCC(=O)NC8=O)nn(C)c7c6)CC5)c4)cc3F)nc12 (racemic) [Compound 85]
82

* * *

# experimental_target: CDK2 (Homo sapiens)
# Construct: host or cells: HEK293
# assay_name: CDK2 HIBIT PQ (protein quantification), degradation
# Format: cell-based
# condition: Max = Maximum
attribute_measured: CDK2 HIBIT PQ Max (%)
Output spec: scalar in %, unitless text.

Which CDK2 HIBIT PQ Max (%) reading was recorded for the compound CC(C)Oc1c(-c2cn[nH]c2)ncn2nc(Nc3ccc(S(=O)(=O)N4CCC5(CCN(CC6CN(c7cccc8c7n(C)c(=O)n8C7CCC(=O)NC7=O)C6)C5)C4)cc3F)nc12 (centres unmarked) ?
85

Okay, and CC(C)Oc1c(-c2cn[nH]c2)ncn2nc(NC3CCN(S(=O)(=O)c4cccc(CN5CCN(c6cc7c(cc6F)C(=O)N(C6CCC(=O)NC6=O)C7)CC5)c4)CC3)nc12 (racemic) ?
66

Now give it for CC(C)Oc1c(-c2cn[nH]c2)ncn2nc(Nc3ccc(S(=O)(=O)N4CCCC(CN5CC(c6ccc7c(N8CCC(=O)NC8=O)nn(C)c7c6)C5)C4)cc3F)nc12 (racemic) too.
56

Repeat with CC(C)Oc1c(-c2cn[nH]c2)ncn2nc(Nc3ccc(S(=O)(=O)N(C)CCCN4CC5CC4CN5c4ccc5c(c4)n(C)c(=O)n5C4CCC(=O)NC4=O)cc3F)nc12 (centres unmarked)
71

// same read-out, input: CC(C)Oc1c(-c2cn[nH]c2)ncn2nc(Nc3ccc(S(=O)(=O)N(C)CCCN4CCN(c5ccc6c(c5)n(C)c(=O)n6C5CCC(=O)NC5=O)CC4(C)C)cc3F)nc12 (racemic)
92

Please answer likewise for CC(C)Oc1c(-c2cn[nH]c2)ncn2nc(Nc3ccc(S(=O)(=O)c4cccc(CN5CCN(c6ccc7c(N8CCC(=O)NC8=O)nn(C)c7c6)CC5C)c4)cc3F)nc12 (racemic)
96

Then this compound: CC(C)Oc1c(-c2cn[nH]c2)ncn2nc(NC3CCN(S(=O)(=O)c4cccc(CN5CCC(c6ccc7c(N8CCC(=O)NC8=O)nn(C)c7c6)CC5)c4)CC3)nc12
93

Try the compound CC(C)Oc1c(-c2cn[nH]c2)ncn2nc(Nc3ccc(S(=O)(=O)N(C)CCCN4CCN(c5ccc6c(c5)n(C)c(=O)n6C5CCC(=O)NC5=O)CC4)cc3F)nc12 (centres unmarked)
92

One more compound: CC(C)Oc1c(-c2cn[nH]c2)ncn2nc(Nc3ccc(S(=O)(=O)c4ccc(CN5CCC(c6ccc7c(c6)n(C)c(=O)n7[C@H]6CCC(=O)NC6=O)CC5)o4)cc3F)nc12
79

Same again, this time with CC(C)Oc1c(-c2cn[nH]c2)ncn2nc(Nc3ccc(S(=O)(=O)N4CCCC(CN5CCC(c6ccc7c(N8CCC(=O)NC8=O)nn(C)c7c6)C(C)C5)C4)cc3F)nc12 (centres unmarked)
88

Can you check CC(C)Oc1c(-c2cn[nH]c2)ncn2nc(Nc3ccc(S(=O)(=O)N4CCCC(CN5CCC(c6ccc7c(N8CCC(=O)NC8=O)nn(C)c7c6)CC5)C4)cc3F)nc12 (single isomer, unassigned) [Compound 95] next?
83

* * *

# experimental_target: CCNE1 (Homo sapiens, UniProt P24864+P24941)
# Construct: host or cells: HEK293
# assay_name: CCNE1 HIBIT PQ (protein quantification), degradation
# Assay type: cell-based
# condition: Max = Maximum
attribute_measured: CCNE1 HIBIT PQ Max (%)

Would you mind telling me what CCNE1 HIBIT PQ Max (%) value was observed for CC(C)Oc1c(-c2cn[nH]c2)ncn2nc(Nc3cc(F)c(S(=O)(=O)N(C)CCCN4CCC(c5ccc6c(c5)n(C)c(=O)n6C5CCC(=O)NC5=O)CC4)cc3F)nc12 (racemic) [Compound 60] ?
74%

And the next one, CC(C)Oc1c(-c2cn[nH]c2)ncn2nc(Nc3ccc(S(=O)(=O)N4CC5C4CCN5CC4CCN(c5cccc6c5n(C)c(=O)n6C5CCC(=O)NC5=O)CC4)cc3F)nc12 (stereo not drawn) [Compound 74] ?
71%

Cool, now CC(C)Oc1c(-c2cn[nH]c2)ncn2nc(Nc3ccc(S(=O)(=O)c4cccc(CN5CCN(c6cc7c(cc6F)C(=O)N(C6CCC(=O)NC6=O)C7)CC5)c4)cc3F)nc12 (racemic) [Compound 11]
65%

* * *

# experimental_target: CDK9 (Homo sapiens, UniProt P50750)
# Construct: host or cells: HEK293
# Sequence (P50750 whole entry): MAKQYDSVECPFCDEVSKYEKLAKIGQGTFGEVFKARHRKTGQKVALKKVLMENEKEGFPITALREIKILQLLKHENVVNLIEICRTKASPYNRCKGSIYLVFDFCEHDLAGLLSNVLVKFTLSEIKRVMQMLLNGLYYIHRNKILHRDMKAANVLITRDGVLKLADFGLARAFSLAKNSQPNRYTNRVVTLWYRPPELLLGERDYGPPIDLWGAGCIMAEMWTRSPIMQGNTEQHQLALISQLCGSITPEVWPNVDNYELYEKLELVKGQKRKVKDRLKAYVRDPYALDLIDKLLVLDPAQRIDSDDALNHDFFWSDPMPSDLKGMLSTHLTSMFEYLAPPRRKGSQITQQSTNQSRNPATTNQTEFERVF
# assay_name: CDK9 HIBIT PQ (protein quantification), degradation
# Type: cell-based
# condition: PQ = Protein Quantification
Mark label 1 only when DC50 stays strictly below 6 nM. Values equal to the cut-off are label 0.

In plain terms, does CC(C)Oc1c(-c2cn[nH]c2)ncn2nc(Nc3ccc(S(=O)(=O)N4CCC[C@H](CN5CC[C@@H](c6ccc7c(N8CCC(=O)NC8=O)nn(C)c7c6)CC5(C)C)C4)cc3F)nc12 (single isomer, unassigned) [Compound 96] come in under 6 nM for DC50?
label 0

Now this one: CC(C)Oc1c(-c2cn[nH]c2)ncn2nc(Nc3ccc(S(=O)(=O)c4cccc(C(C)N5CCC(c6ccc7c(N8CCC(=O)NC8=O)nn(C)c7c6)CC5)c4)cc3F)nc12 (racemic) [Compound 85]
label 0

Now consider CC(C)Oc1c(-c2cn[nH]c2)ncn2nc(Nc3ccc(S(=O)(=O)c4cccc(C(C)N5CCN(c6ccc7c(N8CCC(=O)NC8=O)nn(C)c7c6)CC5)c4)cc3F)nc12 (single isomer, unassigned) [Compound 98] and answer again.
label 0

Then this compound: CC(C)Oc1c(-c2cn[nH]c2)ncn2nc(Nc3ccc(S(=O)(=O)c4cccc(CC5CC(c6ccc(C(=O)NC7CCC(=O)NC7=O)cc6)C5)c4)cc3F)nc12 (racemic)
label 0

Next compound up: CC(C)Oc1c(-c2cn[nH]c2)ncn2nc(Nc3ccc(S(=O)(=O)c4cccc(CN5CCN(c6ccc7c(N8CCC(=O)NC8=O)nn(C)c7c6)CC5C(C)C)c4)cc3F)nc12 (racemic)
label 0

What do you get for CC(C)Oc1c(-c2cn[nH]c2)ncn2nc(Nc3ccc(S(=O)(=O)N4CCC[C@H](CN5CC[C@@H](c6ccc7c(N8CCC(=O)NC8=O)nn(C)c7c6)CC5(C)C)C4)cc3F)nc12 (single isomer, unassigned) [Compound 102] ?
label 1

Another: CC(C)Oc1c(-c2cn[nH]c2)ncn2nc(Nc3ccc(S(=O)(=O)N(C)CCCN4CCC(c5ccc6c(c5)n(C)c(=O)n6C5CCC(=O)NC5=O)CC4)c4ccoc34)nc12 (racemic)
label 1

# iterate: CC(C)Oc1c(-c2cn[nH]c2)ncn2nc(Nc3ccc(S(=O)(=O)N4CCC5(CCN(C6CCN(c7ccc8c(c7)n(C)c(=O)n8C7CCC(=O)NC7=O)CC6)C5)C4)cc3F)nc12 (stereo not drawn)
label 0

Then this compound: CC(C)Oc1c(-c2cn[nH]c2)ncn2nc(N[C@H]3CCN(S(=O)(=O)c4cccc(CN5CCN(c6ccc7c(N8CCC(=O)NC8=O)nn(C)c7c6)C(C)C5)c4)C[C@H]3C)nc12 (stereo partly drawn)
label 0

Okay, and CC(C)Oc1c(-c2cn[nH]c2)ncn2nc(Nc3ccc(S(=O)(=O)c4cccc(CN5CCN(c6ccc7c(N8CCC(=O)NC8=O)nn(C)c7c6)CC5(C)C)c4)cc3F)nc12 ?
label 0

Likewise for CC(C)Oc1c(-c2cn[nH]c2)ncn2nc(Nc3c(F)cc(S(=O)(=O)N(C)CCCN4CCC(c5ccc6c(c5)n(C)c(=O)n6C5CCC(=O)NC5=O)CC4)cc3F)nc12 (racemic) ?
label 1

And CC(C)Oc1c(-c2cn[nH]c2)ncn2nc(Nc3ccc(S(=O)(=O)N4CCCC(CN5CCN(c6ccc7c(N8CCC(=O)NC8=O)nn(C)c7c6)C(C)C5)C4)cc3F)nc12 (stereo not drawn) ?
label 0

For CC(C)Oc1c(-c2cn[nH]c2)ncn2nc(N[C@H]3CCN(S(=O)(=O)c4cccc(CN5CCN(c6ccc7c(N8CCC(=O)NC8=O)nn(C)c7c6)CC5(C)C)c4)C[C@H]3C)nc12 then?
label 0

# repeat for Cc1cc(S(=O)(=O)N(C)CCCN2CCC(c3ccc4c(c3)n(C)c(=O)n4C3CCC(=O)NC3=O)CC2)cc(F)c1Nc1nc2c(OC(C)C)c(-c3cn[nH]c3)ncn2n1 (racemic)
label 1

Queued: CC(C)Oc1c(-c2cn[nH]c2)ncn2nc(Nc3ccc(S(=O)(=O)N(C)CCCN4CCC(c5ccc6c(c5)n(C)c(=O)n6C5CCC(=O)NC5=O)CC4)c4cnccc34)nc12 (racemic)
label 1

And then CC(C)Oc1c(-c2cn[nH]c2)ncn2nc(Nc3ccc(S(=O)(=O)c4cccc(CN5CCN(c6ccc7c(N8CCC(=O)NC8=O)nn(C)c7c6)C(C)C5)c4)cc3F)nc12 (racemic) , what is it?
label 0

Okay, and CC(C)Oc1c(-c2cn[nH]c2)ncn2nc(Nc3ccc(S(=O)(=O)N(C)CCCN4CCN(c5ccc6c(c5)n(C)c(=O)n6C5CCC(=O)NC5=O)C[C@@H]4C(C)C)cc3F)nc12 (stereo partly drawn) ?
label 1

Try the compound CC(C)Oc1c(-c2cn[nH]c2)ncn2nc(Nc3ccc(S(=O)(=O)N4CCCC(CN5CCC(c6ccc7c(c6)n(C)c(=O)n7C6CCC(=O)NC6=O)CC5)C4)cc3F)nc12 (stereo not drawn)
label 1

Subsequent entry: CC(C)Oc1c(-c2cn[nH]c2)ncn2nc(Nc3ccc(S(=O)(=O)N4CCC[C@@H](CN5CC[C@H](c6ccc7c(N8CCC(=O)NC8=O)nn(C)c7c6)CC5(C)C)C4)cc3F)nc12 (single isomer, unassigned)
label 1

Next entry: CC(C)Oc1c(-c2cn[nH]c2)ncn2nc(Nc3ccc(S(=O)(=O)c4cccc(C(C)N5CCN(c6ccc7c(N8CCC(=O)NC8=O)nn(C)c7c6)CC5)c4)cc3F)nc12 (single isomer, unassigned) [Compound 99]
label 0

Try CC(C)Oc1c(-c2cn[nH]c2)ncn2nc(Nc3ccc(S(=O)(=O)N(C)CCCN4CCC(c5ccc6c(c5)n(C)c(=O)n6[C@H]5CCC(=O)NC5=O)CC4)cc3F)nc12 (racemic) next.
label 1
